These data points were gathered from ChEMBL document CHEMBL5346961.

Measured Cmax accompanies every entry in the list below.
# ASSAY NAME: Cmax in Balb/C mouse at 10 mg/kg,iv measured upto 48 hrs by LC-MS/MS analysis
# Type: ADME, organism-based
# Set-up: time < 48 hrs, dose 10 mg/kg, route iv
# RUN PARAMETERS: in vivo
Form entry: enter the amount, then its unit.

{"STRUCTURE SMILES": "CC(C)NC(=O)N(C)c1cnc2ccc(-c3ccc(OCCCN4CCCCC4)nc3)cc2n1", "Cmax": "6790 ng/mL"}

Could you now consider this next compound?
[Q] Which value of Cmax has been reported for "COCc1ccc(-c2ccc3ncc(C(N)=O)c(N[C@@H](C)C4CCOCC4)c3c2)cn1" in the records?
[A] 3010 ng/mL

====

# ASSAY NAME: Clearance in Balb/C mouse at 10 mg/kg,iv measured upto 48 hrs by LC-MS/MS analysis
# Type: ADME, organism-based
# RUN PARAMETERS: in vivo
Measured clearance accompanies every entry in the list below.

{"STRUCTURE SMILES": "CC(C)NC(=O)N(C)c1cnc2ccc(-c3ccc(OCCCN4CCCCC4)nc3)cc2n1", "clearance": "0.78 L/h/kg"}

Could you now consider this next compound?
[Q] Which value of clearance has been reported for "COCc1ccc(-c2ccc3ncc(C(N)=O)c(N[C@@H](C)C4CCOCC4)c3c2)cn1" in the records?
[A] 1.32 L/h/kg

====

Measured Activity accompanies every entry in the list below.
# TEST TARGET: Serine-protein kinase ATM (Homo sapiens, UniProt Q13315)
# Sequence (Q13315 whole entry): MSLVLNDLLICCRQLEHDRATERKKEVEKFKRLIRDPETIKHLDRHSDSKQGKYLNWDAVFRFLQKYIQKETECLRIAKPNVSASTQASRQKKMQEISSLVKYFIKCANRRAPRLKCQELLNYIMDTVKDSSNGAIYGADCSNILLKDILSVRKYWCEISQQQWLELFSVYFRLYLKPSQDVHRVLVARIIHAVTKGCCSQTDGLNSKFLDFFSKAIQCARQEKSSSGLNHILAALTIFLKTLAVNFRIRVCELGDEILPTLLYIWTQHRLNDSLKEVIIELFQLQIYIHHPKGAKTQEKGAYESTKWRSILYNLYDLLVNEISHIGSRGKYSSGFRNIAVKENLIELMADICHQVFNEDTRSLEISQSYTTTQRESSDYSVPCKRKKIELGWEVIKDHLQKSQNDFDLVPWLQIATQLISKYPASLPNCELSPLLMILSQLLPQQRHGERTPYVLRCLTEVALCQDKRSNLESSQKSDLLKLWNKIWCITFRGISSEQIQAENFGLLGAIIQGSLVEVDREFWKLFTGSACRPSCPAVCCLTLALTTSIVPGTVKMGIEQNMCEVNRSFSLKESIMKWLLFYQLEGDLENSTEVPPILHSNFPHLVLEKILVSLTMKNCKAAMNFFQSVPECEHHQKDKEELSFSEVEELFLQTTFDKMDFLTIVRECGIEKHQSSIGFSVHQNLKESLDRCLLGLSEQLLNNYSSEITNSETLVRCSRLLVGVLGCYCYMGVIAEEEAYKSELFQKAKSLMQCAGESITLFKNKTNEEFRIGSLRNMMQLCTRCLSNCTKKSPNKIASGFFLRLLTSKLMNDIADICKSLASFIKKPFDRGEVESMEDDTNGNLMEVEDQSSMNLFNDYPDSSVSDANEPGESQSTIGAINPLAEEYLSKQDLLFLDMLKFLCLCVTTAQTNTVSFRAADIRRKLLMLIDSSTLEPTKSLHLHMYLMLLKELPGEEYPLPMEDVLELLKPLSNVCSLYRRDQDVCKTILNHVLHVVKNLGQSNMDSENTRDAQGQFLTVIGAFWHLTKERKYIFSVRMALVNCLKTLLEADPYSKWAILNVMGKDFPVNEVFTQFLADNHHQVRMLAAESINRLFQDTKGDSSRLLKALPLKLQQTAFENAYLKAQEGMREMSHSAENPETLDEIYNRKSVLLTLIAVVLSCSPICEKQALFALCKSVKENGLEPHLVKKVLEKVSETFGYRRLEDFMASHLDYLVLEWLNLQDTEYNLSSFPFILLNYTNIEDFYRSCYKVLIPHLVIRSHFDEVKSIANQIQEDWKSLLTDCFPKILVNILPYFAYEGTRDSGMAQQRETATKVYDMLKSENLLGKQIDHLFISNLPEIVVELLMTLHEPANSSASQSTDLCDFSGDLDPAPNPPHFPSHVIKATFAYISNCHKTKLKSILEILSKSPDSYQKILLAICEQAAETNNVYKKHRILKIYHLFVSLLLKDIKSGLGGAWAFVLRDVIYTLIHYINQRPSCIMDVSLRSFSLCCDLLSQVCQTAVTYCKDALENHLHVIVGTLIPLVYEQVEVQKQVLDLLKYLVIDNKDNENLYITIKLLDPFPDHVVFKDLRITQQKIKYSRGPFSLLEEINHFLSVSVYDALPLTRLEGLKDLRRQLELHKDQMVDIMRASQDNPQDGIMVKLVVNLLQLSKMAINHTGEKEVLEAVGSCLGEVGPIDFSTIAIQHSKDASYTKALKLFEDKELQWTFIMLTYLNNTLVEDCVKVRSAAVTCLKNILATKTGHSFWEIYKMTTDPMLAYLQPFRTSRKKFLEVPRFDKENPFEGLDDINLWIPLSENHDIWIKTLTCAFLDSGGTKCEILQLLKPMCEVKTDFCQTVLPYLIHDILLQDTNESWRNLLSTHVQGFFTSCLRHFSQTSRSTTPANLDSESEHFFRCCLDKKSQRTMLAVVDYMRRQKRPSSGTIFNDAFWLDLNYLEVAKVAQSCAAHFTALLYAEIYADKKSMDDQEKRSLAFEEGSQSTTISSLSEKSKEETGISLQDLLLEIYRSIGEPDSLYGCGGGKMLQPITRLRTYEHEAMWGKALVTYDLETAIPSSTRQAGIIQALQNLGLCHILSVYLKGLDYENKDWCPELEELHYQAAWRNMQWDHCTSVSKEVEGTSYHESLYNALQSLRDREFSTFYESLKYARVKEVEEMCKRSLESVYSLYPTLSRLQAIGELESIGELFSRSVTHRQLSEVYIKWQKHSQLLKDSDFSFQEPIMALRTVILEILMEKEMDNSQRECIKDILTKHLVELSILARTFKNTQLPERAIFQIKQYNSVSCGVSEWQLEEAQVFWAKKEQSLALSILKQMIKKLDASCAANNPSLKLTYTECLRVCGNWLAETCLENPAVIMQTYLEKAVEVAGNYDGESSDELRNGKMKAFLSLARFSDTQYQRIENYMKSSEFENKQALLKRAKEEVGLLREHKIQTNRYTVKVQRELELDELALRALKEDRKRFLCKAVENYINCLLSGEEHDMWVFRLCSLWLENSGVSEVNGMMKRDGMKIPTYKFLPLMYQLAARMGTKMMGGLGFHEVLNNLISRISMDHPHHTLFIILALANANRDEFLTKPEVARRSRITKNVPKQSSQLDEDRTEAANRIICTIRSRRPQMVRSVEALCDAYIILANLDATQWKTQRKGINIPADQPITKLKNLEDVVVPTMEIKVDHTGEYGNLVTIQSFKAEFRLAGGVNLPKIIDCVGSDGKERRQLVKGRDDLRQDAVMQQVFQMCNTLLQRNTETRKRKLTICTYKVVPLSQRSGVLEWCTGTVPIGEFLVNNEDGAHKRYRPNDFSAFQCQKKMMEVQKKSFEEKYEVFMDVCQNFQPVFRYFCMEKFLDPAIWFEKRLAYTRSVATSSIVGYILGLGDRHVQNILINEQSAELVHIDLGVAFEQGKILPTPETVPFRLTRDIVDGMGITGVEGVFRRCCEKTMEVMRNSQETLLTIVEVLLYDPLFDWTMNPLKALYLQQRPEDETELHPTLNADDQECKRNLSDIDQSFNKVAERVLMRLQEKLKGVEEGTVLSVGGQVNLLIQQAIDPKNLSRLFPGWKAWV
# ASSAY NAME: Inhibition of ATM (unknown origin) assessed as remaining activity at 1 uM preincubated with compound for 30 mins followed by substrate addition and measured after 2 hrs by HTRF method relative to control
# RUN PARAMETERS: time 2.5 hrs
Entry rule: numbers only, all in %.

Example entries and their recorded answers appear below.
{"COMPOUND": "CN(C)CCCOc1ccc(-c2ccc3ncc(NC(=O)NC4CCCCC4)nc3c2)cn1", "MEASUREMENT LABEL": "Activity", "REPORTED RESULT": -5}
{"COMPOUND": "CC(C)CCCOc1ccc(-c2ccc3ncc(N(C)C(=O)NC(C)C)nc3c2)cn1", "MEASUREMENT LABEL": "Activity", "REPORTED RESULT": 33}
{"COMPOUND": "Cc1cc(-c2ccc3ncc(N(C)C(=O)NC(C)C)nc3c2)cnc1OCCCN1CCCCC1", "MEASUREMENT LABEL": "Activity", "REPORTED RESULT": 29}
{"COMPOUND": "CC(C)NC(=O)N(C)c1cnc2ccc(-c3ccc(OCC4CCCN(C)C4)nc3)cc2n1 (stereo not given)", "MEASUREMENT LABEL": "Activity", "REPORTED RESULT": 0}

Could you now consider this next compound?
[Q] Give the reported Activity for CC(C)NC(=O)N(C)c1cnc2ccc(-c3ccc(OCC4CCN(C)C4)nc3)cc2n1 (stereo not given) (system: Serine-protein kinase ATM (Homo sapiens, UniProt Q13315)).
[A] 1

====

# ASSAY NAME: Metabolic stability in human liver microsomes assessed as clearance at 1 uM in presence of NADPH-regenerating system by LC-MS/MS analysis
# Type: ADME, Microsome
Measured log10 CLH accompanies every entry in the list below.
Values are log10 of CLH in mL/min/g.

Example entries and their recorded answers appear below.
{"COMPOUND": "C=CCNC(=O)Nc1cnc2ccc(-c3ccc(OCCCN(C)C)nc3)cc2n1", "MEASUREMENT LABEL": "log10 CLH", "REPORTED RESULT": 2.18}
{"COMPOUND": "COc1ccc(NC(=O)N(C)c2cnc3ccc(-c4ccc(OCCCN(C)C)nc4)cc3n2)cc1", "MEASUREMENT LABEL": "log10 CLH", "REPORTED RESULT": 1.65}
{"COMPOUND": "CC(C)NC(=O)N(C)c1cnc2ccc(-c3ccc(OCCCN4CCCCC4)nc3)cc2n1", "MEASUREMENT LABEL": "log10 CLH", "REPORTED RESULT": 0.26}
{"COMPOUND": "CC(C)NC(=O)N(C)c1cnc2ccc(-c3ccc(OCCN4CCCCC4)nc3)cc2n1", "MEASUREMENT LABEL": "log10 CLH", "REPORTED RESULT": 1.67}
{"COMPOUND": "CC(C)NC(=O)N(C)c1cnc2ccc(-c3ccc(OCCCN4CCCC4=O)nc3)cc2n1", "MEASUREMENT LABEL": "log10 CLH", "REPORTED RESULT": 1.28}

[Q] Which value of log10 CLH has been reported for "CN(C)CCCOc1ccc(-c2ccc3ncc(N(C)C(=O)NC4CC4)nc3c2)cn1" in the records?
[A] 1.59

[Q] Which value of log10 CLH has been reported for CC(C)NC(=O)N(C)c1cnc2ccc(-c3ccc(OCC4CCN(C)C4)nc3)cc2n1 (centres undefined) in the records?
[A] 1.60

[Q] Which value of log10 CLH has been reported for "CC(C)NC(=O)N(C)c1cnc2ccc(-c3ccc(OCCCN4CCCCC4)nc3F)cc2n1" in the records?
[A] 0.87

[Q] Which value of log10 CLH has been reported for "CC(C)NC(=O)N(C)c1cnc2ccc(-c3ccc(OCCCN(C)C)nc3)cc2n1" in the records?
[A] 1.60

====

# ASSAY NAME: Metabolic stability in human liver microsomes assessed as half life at 1 uM in presence of NADPH-regenerating system by LC-MS/MS analysis
# Format: ADME, Microsome
Measured half-life at 1 µM accompanies every entry in the list below.
Entry rule: numbers only, all in min.

Example entries and their recorded answers appear below.
{"COMPOUND": "CC(C)NC(=O)N(C)c1cnc2ccc(-c3ccc(OCCCN4CCCC4)nc3)cc2n1", "ENDPOINT UNIT": "min", "half-life at 1 µM": 267}
{"COMPOUND": "CC(C)NC(=O)N(C)c1cnc2ccc(-c3ccc(OCC4CCN(C)C4)nc3)cc2n1 (configuration not stated)", "ENDPOINT UNIT": "min", "half-life at 1 µM": 50}

[Q] Which value of half-life at 1 µM has been reported for CC(C)NC(=O)N(C)c1cnc2ccc(-c3ccc(OCCC4CCCN4C)nc3)cc2n1 (configuration not stated) in the records?
[A] 48

[Q] Which value of half-life at 1 µM has been reported for "CN(C)CCCOc1ccc(-c2ccc3ncc(NC(=O)NC4CCCC4)nc3c2)cn1" in the records?
[A] 10

[Q] Which value of half-life at 1 µM has been reported for "CC(C)NC(=O)N(C)c1cnc2ccc(-c3ccc(OCCCN(C)C)nc3)cc2n1" in the records?
[A] 35

====

# TEST TARGET: Phosphatidylinositol 4,5-bisphosphate 3-kinase catalytic subunit alpha isoform (Homo sapiens)
# Sequence (P42336 whole entry, canonical isoform): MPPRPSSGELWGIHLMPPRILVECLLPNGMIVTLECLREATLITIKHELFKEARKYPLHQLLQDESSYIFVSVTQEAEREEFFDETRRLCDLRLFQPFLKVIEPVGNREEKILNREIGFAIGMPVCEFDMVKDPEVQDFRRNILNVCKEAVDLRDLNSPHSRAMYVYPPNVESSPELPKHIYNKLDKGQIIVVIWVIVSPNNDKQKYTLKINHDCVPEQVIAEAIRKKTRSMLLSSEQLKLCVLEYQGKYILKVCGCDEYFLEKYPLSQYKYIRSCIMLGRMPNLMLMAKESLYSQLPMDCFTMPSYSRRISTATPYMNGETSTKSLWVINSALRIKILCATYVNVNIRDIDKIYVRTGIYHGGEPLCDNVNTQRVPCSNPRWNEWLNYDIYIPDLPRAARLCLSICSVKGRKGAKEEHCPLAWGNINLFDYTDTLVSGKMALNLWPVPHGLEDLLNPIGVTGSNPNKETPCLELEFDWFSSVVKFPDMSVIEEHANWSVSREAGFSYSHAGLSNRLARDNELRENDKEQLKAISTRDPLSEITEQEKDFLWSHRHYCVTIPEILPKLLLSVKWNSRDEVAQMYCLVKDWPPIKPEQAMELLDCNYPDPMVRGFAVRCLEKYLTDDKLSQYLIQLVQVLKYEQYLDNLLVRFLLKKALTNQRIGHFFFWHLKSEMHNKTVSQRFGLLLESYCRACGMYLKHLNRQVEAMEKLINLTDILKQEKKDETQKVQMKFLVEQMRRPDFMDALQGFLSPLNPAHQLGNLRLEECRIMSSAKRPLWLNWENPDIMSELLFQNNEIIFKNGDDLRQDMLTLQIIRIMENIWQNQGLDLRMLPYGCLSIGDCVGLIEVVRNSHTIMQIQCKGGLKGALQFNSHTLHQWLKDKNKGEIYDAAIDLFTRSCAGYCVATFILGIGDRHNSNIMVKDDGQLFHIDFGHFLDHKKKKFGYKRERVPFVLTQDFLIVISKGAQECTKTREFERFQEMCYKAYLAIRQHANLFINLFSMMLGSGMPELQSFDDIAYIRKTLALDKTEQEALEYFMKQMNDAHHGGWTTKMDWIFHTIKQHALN
# ASSAY NAME: Inhibition of PIK3alpha (unknown origin)
MEASUREMENT LABEL: IC50 (nM)
Entry rule: numbers only, all in nM.

[Q] Which value of IC50 has been reported for "CC(C)(C#N)c1ccc(N2C(=O)OCc3cnc4ccc(-c5cnc6ccccc6c5)cc4c32)cc1" in the records?
[A] 170

====

# Tested on: HCT-116
# ASSAY NAME: Inhibition of colony formation in human HCT-116 cells at 0.01 uM preincubated for 1 hr followed by exposure to 2 Gy gamma irradiation and measured after 1 week by crystal violet staining based […] assay relative to control
# Type: functional
# RUN PARAMETERS: HCT-116, light or radiation study, time 169 hrs
Measured inhibition at 0.01 µM accompanies every entry in the list below.
Entry rule: numbers only, all in %.

{"COMPOUND": "CC(C)NC(=O)N(C)c1cnc2ccc(-c3ccc(OCC4CCCN(C)C4)nc3)cc2n1 (stereo not drawn)", "MEASUREMENT LABEL": "inhibition at 0.01 µM", "ENDPOINT UNIT": "%", "REPORTED RESULT": -8.09}
{"COMPOUND": "CN(C)CCCOc1ccc(-c2ccc3ncc(N(C)C(=O)N[C@]45C[C@@H]6C[C@H](C[C@@H](C6)C4)C5)nc3c2)cn1", "MEASUREMENT LABEL": "inhibition at 0.01 µM", "ENDPOINT UNIT": "%", "REPORTED RESULT": -3.67}
{"COMPOUND": "CC(C)NC(=O)N(C)c1cnc2ccc(-c3ccc(OCCCN4CCCCC4)nc3F)cc2n1", "MEASUREMENT LABEL": "inhibition at 0.01 µM", "ENDPOINT UNIT": "%", "REPORTED RESULT": 68.7}
{"COMPOUND": "CCCCNC(=O)N(C)c1cnc2ccc(-c3ccc(OCCCN(C)C)nc3)cc2n1", "MEASUREMENT LABEL": "inhibition at 0.01 µM", "ENDPOINT UNIT": "%", "REPORTED RESULT": 92.7}
{"COMPOUND": "CC(C)NC(=O)N(C)c1cnc2ccc(-c3ccc(OCCN4CCN(C)CC4)nc3)cc2n1", "MEASUREMENT LABEL": "inhibition at 0.01 µM", "ENDPOINT UNIT": "%", "REPORTED RESULT": 22.8}
{"COMPOUND": "CC(C)NC(=O)N(C)c1cnc2ccc(-c3ccc(OCCCN(C)C)nc3)cc2n1", "MEASUREMENT LABEL": "inhibition at 0.01 µM", "ENDPOINT UNIT": "%", "REPORTED RESULT": 58.4}
{"COMPOUND": "CC(C)NC(=O)N(C)c1cnc2ccc(-c3ccnc(OCCCN4CCCCC4)c3)cc2n1", "MEASUREMENT LABEL": "inhibition at 0.01 µM", "ENDPOINT UNIT": "%", "REPORTED RESULT": 32.2}
{"COMPOUND": "CC(C)NC(=O)N(C)c1cnc2ccc(-c3ccc(OCCCN4CCCC4)nc3)cc2n1", "MEASUREMENT LABEL": "inhibition at 0.01 µM", "ENDPOINT UNIT": "%", "REPORTED RESULT": 83.8}

[Q] Which value of inhibition at 0.01 µM has been reported for "CC(C)NC(=O)N(C)c1cnc2ccc(-c3ccc(OCCCN4CCCC4=O)nc3)cc2n1" in the records?
[A] 33.7

[Q] Which value of inhibition at 0.01 µM has been reported for "CN(C)CCCOc1ccc(-c2ccc3ncc(N(C)C(=O)NC4CC4)nc3c2)cn1" in the records?
[A] 43.9

[Q] Which value of inhibition at 0.01 µM has been reported for "Cc1cc(-c2ccc3ncc(N(C)C(=O)NC(C)C)nc3c2)cnc1OCCCN1CCCCC1" in the records?
[A] -28.4

[Q] Which value of inhibition at 0.01 µM has been reported for "CN(C)CCCOc1ccc(-c2ccc3ncc(N(C)C(=O)Nc4ccccc4Cl)nc3c2)cn1" in the records?
[A] 84.4

[Q] Which value of inhibition at 0.01 µM has been reported for "CC(C)NC(=O)N(C)c1cnc2ccc(-c3cnc(OCCCN4CCCCC4)cc3F)cc2n1" in the records?
[A] 27.4

[Q] Which value of inhibition at 0.01 µM has been reported for CC(C)NC(=O)N(C)c1cnc2ccc(-c3ccc(OC4CCC(N(C)C)CC4)nc3)cc2n1 (stereo not drawn) in the records?
[A] 11.3

[Q] Which value of inhibition at 0.01 µM has been reported for "CC(C)NC(=O)N(C)c1cnc2ccc(-c3ccc(OCCCN4CCCCC4)nc3)cc2n1" in the records?
[A] 94.1

[Q] Which value of inhibition at 0.01 µM has been reported for "Cc1nc(OCCCN2CCCCC2)ccc1-c1ccc2ncc(N(C)C(=O)NC(C)C)nc2c1" in the records?
[A] 48.2

[Q] Which value of inhibition at 0.01 µM has been reported for "COc1ccc(NC(=O)N(C)c2cnc3ccc(-c4ccc(OCCCN(C)C)nc4)cc3n2)cc1" in the records?
[A] -0.75

[Q] Which value of inhibition at 0.01 µM has been reported for "CC(C)NC(=O)N(C)c1cnc2ccc(-c3ccc(OCCCN4CCN(C)CC4)nc3)cc2n1" in the records?
[A] 73.6

[Q] Which value of inhibition at 0.01 µM has been reported for CC(C)NC(=O)N(C)c1cnc2ccc(-c3ccc(OCCC4CCCN4C)nc3)cc2n1 (stereo not drawn) in the records?
[A] 36.5

[Q] Which value of inhibition at 0.01 µM has been reported for "C=CCNC(=O)N(C)c1cnc2ccc(-c3ccc(OCCCN(C)C)nc3)cc2n1" in the records?
[A] 49.7

[Q] Which value of inhibition at 0.01 µM has been reported for "CC(C)NC(=O)N(C)c1cnc2ccc(-c3ccc(OCCN4CCCC4)nc3)cc2n1" in the records?
[A] 25

[Q] Which value of inhibition at 0.01 µM has been reported for "CN(C)CCCOc1ccc(-c2ccc3ncc4c(c3c2)n(C2CCOCC2)c(=O)n4C)cn1" in the records?
[A] 94.3

[Q] Which value of inhibition at 0.01 µM has been reported for "CC(C)NC(=O)N(C)c1cnc2ccc(-c3cnc(OCCCN4CCCCC4)c(C(F)(F)F)c3)cc2n1" in the records?
[A] -13.6
